ASSAYED_SYSTEM: UniProtKB P11473
Sequence (whole entry): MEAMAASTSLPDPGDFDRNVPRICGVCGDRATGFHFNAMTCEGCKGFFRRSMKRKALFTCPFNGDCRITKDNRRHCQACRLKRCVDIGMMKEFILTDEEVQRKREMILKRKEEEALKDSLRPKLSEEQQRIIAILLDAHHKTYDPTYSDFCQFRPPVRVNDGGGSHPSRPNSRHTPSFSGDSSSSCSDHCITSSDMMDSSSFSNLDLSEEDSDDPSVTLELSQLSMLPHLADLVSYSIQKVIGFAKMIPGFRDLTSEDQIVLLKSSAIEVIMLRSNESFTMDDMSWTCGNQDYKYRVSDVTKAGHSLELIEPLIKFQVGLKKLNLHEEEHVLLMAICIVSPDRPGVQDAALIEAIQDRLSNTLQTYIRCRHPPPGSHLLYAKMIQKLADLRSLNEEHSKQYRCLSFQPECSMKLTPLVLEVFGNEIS
MEASUREMENT_PROTOCOL: Antagonist activity against 1-alpha,25-dihydroxy vitamin D3-induced HL60 cell differentiation by NBT reduction method relative to TEI-9647
Format: functional, cell-based
Set-up: scale not given: the % may be the effect or the level left
COND: HL-60
MEASUREMENT_LABEL: Activity (%)
Give just the numeric value; % need not be written.

Inquiry: Give Activity for C=C1/C(=C\C=C2/CCC[C@]3(C)[C@@H]([C@H](C)C[C@@H]4OC(=O)C(=C)[C@@H]4CCC)CC[C@@H]23)C[C@@H](O)C[C@@H]1O
Reply text: 86
